Assay comment: Tissue distribution of curcumin and THC at necropsy 15 minutes post-infusion
Design: species or system Beagle dogs
Settings: both sexes, beagle, dog, in vivo, 10 mg/kg, 8 hour infusion; Plus H3PO4; read-out: Tissue level, Liver
Experimental: The test article will be administered to 8 Beagle dogs by intravenous infusion over two hours (Part A) or eight hours (Part B) as shown in Table 6. Multiple samples of tissue weighing approximately 1 gram were removed and snap frozen in the presence or absence of phosphoric acid (H3PO4). For all tissue samples, the levels of curcumin and THC were determined using a method developed by the Bioanalytical Department at Nucro-Technics. […]
Readout name: concentration at 15 min

[in] What value of concentration at 15 min has been reported for the following compound? COc1cc(CCC(=O)CC(=O)CCc2ccc(O)c(OC)c2)ccc1O [THC, tetrahydrocurcumin]
[out] 2.25 ng/g

====

Assay comment: Tissue distribution of curcumin and THC at necropsy 15 minutes post-infusion
Set-up: species or system Beagle dogs
Settings: both sexes, beagle, dog, in vivo, 10 mg/kg, Eight hour infusion; H3PO4 stabilized; read-out: Average tissue concentration, Muscle
Readout name: concentration at 15 min

[in] Param item = COc1cc(CCC(=O)CC(=O)CCc2ccc(O)c(OC)c2)ccc1O [THC, tetrahydrocurcumin] ; retrieve measured concentration at 15 min.
[out] 2.42 ng/g

====

Assay comment: Plasma, urine and bile levels of curcumin and THC 15 minutes post-infusion
Type: in vivo, Beagle dogs
Settings: both sexes, Beagle, dog, in vivo, 10 mg/kg, 15 min after 8 hour infusion; + H3PO4; mean±SE; read-out: Bile level
Readout name: concentration at 15 min (ng/mL)
Answers are plain numbers, in ng/mL.

[in] # get_value(readout='concentration at 15 min', item= COc1cc(CCC(=O)CC(=O)CCc2ccc(O)c(OC)c2)ccc1O [THC, tetrahydrocurcumin] )
[out] 168

====

Assay comment: Tissue distribution of curcumin and THC at necropsy 15 minutes post-infusion
Set-up: species or system Beagle dogs
Settings: both sexes, beagle, dog, in vivo, 10 mg/kg, 2 hour infusion; No H3PO4; read-out: Tissue level, Muscle
Readout name: concentration at 15 min
Give the figure together with its unit, number first.

[in] // concentration at 15 min lookup, key: COc1cc(CCC(=O)CC(=O)CCc2ccc(O)c(OC)c2)ccc1O [THC, tetrahydrocurcumin]
[out] 5.26 ng/g

====

Assay comment: Plasma, urine and bile levels of curcumin and THC 15 minutes post-infusion
Assay type: in vivo, Beagle dogs
Settings: both sexes, Beagle, dog, in vivo, 10 mg/kg, 15 min after 8 hour infusion; no H3PO4; mean±SE; read-out: Bile level
Readout name: concentration at 15 min
Report the figure along with its unit, number first.

[in] Dear colleague, I am looking for the recorded concentration at 15 min of the following molecule: COc1cc(CCC(=O)CC(=O)CCc2ccc(O)c(OC)c2)ccc1O [THC, tetrahydrocurcumin]
[out] 84 ng/mL

====

Assay comment: Tissue distribution of curcumin and THC at necropsy 15 minutes post-infusion
Parameters: species or system Beagle dogs
Settings: both sexes, beagle, dog, in vivo, 10 mg/kg, Table 14, 2 hour infusion; +H3PO4; read-out: Tissue analysis, Lung
Readout name: concentration at 15 min (ng/g)
One number for each entry, in ng/g.

[in] Need concentration at 15 min of COc1cc(CCC(=O)CC(=O)CCc2ccc(O)c(OC)c2)ccc1O [THC, tetrahydrocurcumin] , thanks.
[out] 9.37
